Documented relative viability across a set of molecules
test system: SW872; assay: relative viability vs DMSO control (72 h) (fraction); higher = more viable cells; settings: 0.00017 µM
observationType: relative viability

>>> print(df.to_string())
                                   molecule     observationtype  measured
0  C#Cc1cccc(Nc2ncnc3cc(OCCOC)c(OCCOC)cc23)c1 [Erlotinib]  relative viability      1.11
1  CO[C@@H]1[C@H](N(C)C(=O)c2ccccc2)C[C@H]2O[C@]1(C)n1c3ccccc3c3c4c(c5c6ccccc6n2c5c31)C(=O)NC4 [Midostaurin]  relative viability     0.976
2  NC(=O)c1cnc2[nH]ccc2c1N[C@@H]1[C@@H]2CC3C[C@H]1C[C@@](O)(C3)C2 [Peficitinib]  relative viability      1.01
3  COc1cc2nccc(Oc3ccc(NC(=O)NC4CC4)c(Cl)c3)c2cc1C(N)=O [Lenvatinib]  relative viability      1.07
4  COc1cc2c(Oc3ccc4[nH]c(C)cc4c3F)ccnc2cc1OCC1(N)CC1 [Anlotinib]  relative viability     0.962

----------
test system: RD; assay: relative viability vs DMSO control (72 h) (fraction); higher = more viable cells; conditions: 10 µM

compoundSmiles	relative viability
CO[C@H]1C[C@@H]2CC[C@@H](C)[C@@](O)(O2)C(=O)C(=O)N2CCCC[C@H]2C(=O)O[C@H]([C@H](C)C[C@@H]2CC[C@@H](O)[C@H](OC)C2)CC(=O)[C@H](C)/C=C(\C)[C@@H](O)[C@@H](OC)C(=O)[C@H](C)C[C@H](C)/C=C/C=C/C=C/1C	0.568
COc1cc2nccc(Oc3ccc(NC(=O)NC4CC4)c(Cl)c3)c2cc1C(N)=O	0.984
Cc1cn(-c2cc(NC(=O)c3ccc(C)c(Nc4nccc(-c5cnccn5)n4)c3)cc(C(F)(F)F)c2)cn1	1.04

----------
tested on: MES-SA; assay: relative viability vs DMSO control (72 h) (fraction); higher = more viable cells; conditions: 3.333 µM
Documented relative viability across a set of compounds
observationType: relative viability

>>> print(df.to_string())
                                   compound  experimentalsystem  measured
0  NC(=O)c1cccc2cn(-c3ccc([C@@H]4CCCNC4)cc3)nc12 [Niraparib]              MES-SA     0.774
1  N#CCC1(n2cc(-c3ncnc4[nH]ccc34)cn2)CN(C2CCN(C(=O)c3ccnc(C(F)(F)F)c3F)CC2)C1 [Itacitinib]              MES-SA     0.864
2  C#Cc1cccc(Nc2ncnc3cc(OCCOC)c(OCCOC)cc23)c1 [Erlotinib]              MES-SA     0.687
3  N#Cc1ccnc(N2C(=O)CC[C@H]2C(=O)N(c2cncc(F)c2)[C@H](C(=O)NC2CC(F)(F)C2)c2ccccc2Cl)c1 [Ivosidenib]              MES-SA     0.925
4  NC(=O)c1cnc2[nH]ccc2c1N[C@@H]1[C@@H]2CC3C[C@H]1C[C@@](O)(C3)C2 [Peficitinib]              MES-SA     0.769
5  COc1cc(OC)cc(N(CCNC(C)C)c2ccc3ncc(-c4cnn(C)c4)nc3c2)c1 [Erdafitinib]              MES-SA     0.409
6  Cc1cn(-c2cc(NC(=O)c3ccc(C)c(Nc4nccc(-c5cnccn5)n4)c3)cc(C(F)(F)F)c2)cn1 [Radotinib]              MES-SA      1.01
7  COc1cc(Nc2c(C#N)cnc3cc(OCCCN4CCN(C)CC4)c(OC)cc23)c(Cl)cc1Cl [Bosutinib]              MES-SA     0.432
